tested on: A-375; assay: Cytotoxicity against human A375 cells assessed as reduction in cell viability after 48 hrs by MTT assay; assay type: functional, cell-based; settings: A-375, 48 h
readout_kind: IC50 (µM)
Response body: numeric value in µM, unit text excluded.

Record excerpt, results attached:
smiles_input	IC50, µM
C=C(C)[C@@H]1CC[C@]2(C(=O)O)CC[C@]3(CO)[C@H](CC[C@@H]4[C@@]5(C)C[C@@H](OC(=O)/C=C/c6ccc(O)c(O)c6)[C@H](OC(=O)/C=C\c6ccc(O)cc6)C(C)(C)[C@@H]5CC[C@]43C)[C@@H]12	3.8
C=C(C)[C@@H]1CC[C@]2(C(=O)O)CC[C@]3(C)[C@H](CC[C@@H]4[C@@]5(C)C[C@@H](OC(=O)/C=C/c6ccc(O)c(O)c6)[C@H](O)C(C)(C)[C@@H]5CC[C@]43C)[C@@H]12	6.3

Attention now turns to another entry.
Item C=C(C)[C@@H]1CC[C@]2(C(=O)O)CC[C@]3(C)[C@H](CC[C@@H]4[C@@]5(C)CC[C@H](O)C(C)(C)[C@@H]5CC[C@]43C)[C@@H]12 ; assay system A-375; IC50 reported as 43.7
